Tested system: T1, human dysadherin (human, UniProt Q96DB9 22-178)
T1 chain: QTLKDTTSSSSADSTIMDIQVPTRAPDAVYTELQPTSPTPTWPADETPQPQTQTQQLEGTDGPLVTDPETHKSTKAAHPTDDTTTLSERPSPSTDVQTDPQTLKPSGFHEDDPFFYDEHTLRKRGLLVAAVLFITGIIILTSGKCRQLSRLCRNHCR
Procedure details: cell-based or functional assay
Measured attribute: EC50, cytotoxicity (CellTiter-Glo cell viability), A549 cells (nM)
Output spec: scalar in nM, unitless text.

Let me know recorded EC50, cytotoxicity (CellTiter-Glo cell viability), A549 cells for M53-PEG24-CEN10-110 (antibody, V domains shown, PEG24-CEN10-110 on reduced cysteine thiols; positions not given; PEG24-CEN10-110 (scillarenin linker-drug with lysine in the linker) on reduced cysteine thiols; positions not given) VH: EVQLVESGGGLVQPKGTLKLSCAASGFSFNTHAMNWVRQAPGKSLEWVARTMSKSNNYATYYADSVKDRFIIRADDSQSMLYLQMNNLKTEDTAMYYCVRDDPKRGMDYWGQGTSVTVSS VL: GIVMSQSPSSLAVSVGEKVTMSCKPSQSLLYSRNQKIYLAWYQQKPGQSPKLLIYWASTRESGVPDRFTGSGSGTDFTLIISSVRAEDLAVYYCQQYYNYPLTFGAGTKLELKR , thanks.
0.1

Fill in reported EC50, cytotoxicity (CellTiter-Glo cell viability), A549 cells for this entry: M53-PEG24-CEN09-106 (antibody, V domains shown, PEG24-CEN09-106 on reduced cysteine thiols; positions not given; PEG24-CEN09-106 (scillarenin 4-amino-xyloside PEG24 maleimide linker-drug) on reduced cysteine thiols; positions not given) VH: EVQLVESGGGLVQPKGTLKLSCAASGFSFNTHAMNWVRQAPGKSLEWVARTMSKSNNYATYYADSVKDRFIIRADDSQSMLYLQMNNLKTEDTAMYYCVRDDPKRGMDYWGQGTSVTVSS VL: GIVMSQSPSSLAVSVGEKVTMSCKPSQSLLYSRNQKIYLAWYQQKPGQSPKLLIYWASTRESGVPDRFTGSGSGTDFTLIISSVRAEDLAVYYCQQYYNYPLTFGAGTKLELKR
0.2

State, in one line, measured EC50, cytotoxicity (CellTiter-Glo cell viability), A549 cells of M53-PEG24-CEN-319 (antibody, V domains shown, PEG24-CEN-319 on reduced cysteine thiols; positions not given; PEG24-CEN-319 (digitoxigenin 4-amino-xyloside PEG24 maleimide linker-drug) on reduced cysteine thiols; positions not given) VH: EVQLVESGGGLVQPKGTLKLSCAASGFSFNTHAMNWVRQAPGKSLEWVARTMSKSNNYATYYADSVKDRFIIRADDSQSMLYLQMNNLKTEDTAMYYCVRDDPKRGMDYWGQGTSVTVSS VL: GIVMSQSPSSLAVSVGEKVTMSCKPSQSLLYSRNQKIYLAWYQQKPGQSPKLLIYWASTRESGVPDRFTGSGSGTDFTLIISSVRAEDLAVYYCQQYYNYPLTFGAGTKLELKR
1.6

# return recorded EC50, cytotoxicity (CellTiter-Glo cell viability), A549 cells for input M53-PEG24-CEN09-107 (antibody, V domains shown, PEG24-CEN09-107 on reduced cysteine thiols; positions not given; PEG24-CEN09-107 (scillarenin 4-amino-riboside PEG24 maleimide linker-drug) on reduced cysteine thiols; positions not given) VH: EVQLVESGGGLVQPKGTLKLSCAASGFSFNTHAMNWVRQAPGKSLEWVARTMSKSNNYATYYADSVKDRFIIRADDSQSMLYLQMNNLKTEDTAMYYCVRDDPKRGMDYWGQGTSVTVSS VL: GIVMSQSPSSLAVSVGEKVTMSCKPSQSLLYSRNQKIYLAWYQQKPGQSPKLLIYWASTRESGVPDRFTGSGSGTDFTLIISSVRAEDLAVYYCQQYYNYPLTFGAGTKLELKR
0.5
